# System: OVCAR-8 ovarian
# Procedure summary: NCI-60 one-dose screen, 48 h (100 = growth as untreated, 0 = no growth, -100 = all killed)
# Experimental setup: 10 µM
The panel holds about 83,000 compounds, 20% with a hit somewhere; the sample as a whole holds those more often. Active and inactive are the calls of the source. Rule for the calls: active = growth percent below 10; inactive = the rest.
Measurement type: growth

// solved cases for growth follow
Compound: FC(F)(F)c1ccc(-c2cnc(-n3cc(COCCN4CCCCC4)nn3)nc2NC2CCCCCC2)cc1
growth: 54.7% (inactive)

Compound: O=C(CCCCC(=O)Nc1ccc2c(c1)/C(=C/c1ccc[nH]1)C(=O)N2)NO
growth: 69.4% (inactive)

Compound: COc1cc(CNc2ccccc2C(=O)N2CCN(C(=O)c3cc(-c4cc(OC)c(OC)c(OC)c4)n4nc(-c5ccccc5)cc4n3)CC2)cc(OC)c1OC
growth: 65.1% (inactive)

Compound: O=C(Nc1cccc(-n2cc(-c3ccncc3)c(-c3cc(O)cc(Cl)c3)n2)c1)c1cc(C(F)(F)F)cc(C(F)(F)F)c1
growth: 39.6% (inactive)

Compound: CCCCN(CCCC)CCCCCCCCC(O)c1cc2ccccc2c2ccccc12 (centres undefined)
growth: 49.4% (inactive)

Could you please provide reported growth for "Cc1cc(Cc2cc(C)c(O)c(C)c2)cc(C)c1O" ? Thanks!
61.9% (inactive)

Using known records, supply growth for "CC/C(C)=C(\C)C(=O)O"
103% (inactive)

For "O=c1c2ccccc2nc(SCCN2CCCCC2)n1CCc1ccccc1" , write its growth.
95.9% (inactive)

Supply growth value. Item: "O=C1/C(=C\c2ccc(F)cc2)CN(C(=O)c2ccccc2)C/C1=C\c1ccc(F)cc1"
3.54% (active)

* * *

# Test system: HOP-62 NSCLC
# Procedure summary: NCI-60 one-dose screen, 48 h (100 = growth as untreated, 0 = no growth, -100 = all killed)
# Experimental setup: 10 µM
This is part of a sample that, as a whole, favours compounds with a hit. Of some 83,000 tested, about 20% had one in any assay.
A collection of compounds and their measured growth
Numbers only here, please. The scale is %.

Solved cases below.
Compound: COc1ccc(OC)c2c1C(=O)CC2C (configuration not stated)
Experimental target: HOP-62 NSCLC
Scale unit: %
growth: 101
--
Compound: COc1cc2nc(Nc3cccc(NC(C)=O)c3)nc(N)c2cc1OC
Experimental target: HOP-62 NSCLC
Scale unit: %
growth: 94.4
--
Compound: COC(=O)C1(C)Cc2cc(OC(C)=O)c(OC(C)=O)cc2N1 (configuration not stated)
Experimental target: HOP-62 NSCLC
Scale unit: %
growth: 117
--
Compound: CC/C(=N\N=C(/CC)c1ccc(Br)cc1)c1ccc(Br)cc1
Experimental target: HOP-62 NSCLC
Scale unit: %
growth: 94.9
--
Compound: CCN(CC)CCC(CNc1c(C)cnc2cc(Cl)ccc12)c1ccc(Cl)cc1 (configuration not stated)
Experimental target: HOP-62 NSCLC
Scale unit: %
growth: 66.2

For HOP-62 NSCLC, give growth of the listed compound: "NC(=O)CC1(c2ccccc2)CCCCC1"
102

// fetch growth for "O=C(Nc1ccc(CO)cc1)c1ccccc1Nc1ccnc(C(F)(F)F)c1" ; system: HOP-62 NSCLC
95.4

Name the recorded growth of "CSC1=NCCCC1" , assay system HOP-62 NSCLC.
112

Recall the reported growth of "CCOC(=O)N1C/C(=C/c2ccc(F)cc2)C(=O)/C(=C/c2ccc(F)cc2)C1" on HOP-62 NSCLC and write it down.
-12.9

Identify measured growth obtained with HOP-62 NSCLC for CCC1(C(C)C)NC(=O)NC1=O (configuration not stated) .
96

Look up HOP-62 NSCLC data: growth of "CCN(CC)CCN1CC(=O)Nc2cc(Cl)ccc21" , then report it.
103

Give reported growth for "N#Cc1ncc(-c2cc(F)c(F)c(F)c2)c(NC2CCCCCC2)n1" (HOP-62 NSCLC)
100

* * *

# System: UACC-62 melanoma
# Procedure summary: NCI-60 one-dose screen, 48 h
# Experimental setup: 10 µM
Compounds without any hit were thinned out: in the full panel of roughly 83,000, 20% have a hit. Calls of active or inactive are those of the source. Rule for the calls: active = growth percent below 10; inactive = the rest.
Write down the outcome that applies. Available outcomes: TRUE = active, FALSE = inactive

Examples from the recorded data:
Compound: COc1ccc(OC)c(/C=C/c2nc(SC)n(-c3ccc(Cl)cc3)n2)c1
Answer label: FALSE
//
Compound: CCCCN(CCCC)CCCCCCCCC(O)c1cc2ccccc2c2ccccc12 (stereo not given)
Answer label: FALSE

Hi, do you know how "COc1cc(-c2cc(/C=C/C(=O)c3ccc4c(c3)OCO4)[nH]n2)cc(OC)c1OC" came out in this test?
FALSE

Give the logged outcome of this assay for the following compound: "CN(C)CCOc1nc2ccccc2c2c1-c1ccc(Cl)cc1C2=O"
TRUE

Test call for this compound, please: "O=C(Nc1ccncc1)C(=O)c1cn(S(=O)(=O)c2cc(Cl)cc(Cl)c2)c2ccccc12"
FALSE

* * *

# System: SR leukemia
# Procedure summary: NCI-60 one-dose screen, 48 h
# Experimental setup: 10 µM
# Protocol: Growth inhibition of the SR human tumor cell line is measured as a screen for anti-cancer activity. Cells are grown in 96 well plates and exposed to the test compound for 48 hours. Compounds are tested at a single concentration, which is 10^-5 M for most compounds. The reported endpoint is percent growth (GI% or GIPRCNT), where numbers from 0 - 100% represent growth inhibition, and numbers from -100% - 0 represent cell death. For example, a value of 40 represents 60% growth inhibition. […]
About 83,000 compounds went through this panel and 20% of them were active in at least one assay; those are over-represented in the sample as a whole. Active and inactive are the calls of the source. The calls were made as follows: active = growth percent below 10; inactive = the rest.
Please reply with one of these outcomes: active, inactive

Compound: COc1cccc(-c2cc(-c3cccc(NS(C)(=O)=O)c3)nc(N)c2C#N)c1O
Answer label: inactive

How did this test come out for "CS(=O)(=O)Nc1ccc(Nc2c3ccccc3nc3cc(N)ccc23)cc1" ?
active

Identify the outcome logged in this assay for the compound shown: "Nc1nc(N=Nc2ccc(O)cc2)cc(=O)[nH]1"
inactive

Called result for CC(C)=CCc1cc(O)cc2c1OC(C=C(C)C)C1=C2C(=O)C2=C(C1=O)S(=O)(=O)CCN2 (stereo not given)
active

Tell me the assay call for CCN(CC)CCCC(C)Nc1nc(-c2ccc(OC)cc2)nc2cc(Cl)ccc12 (stereo not given) please.
inactive

Could you kindly confirm the outcome this assay logged for "O=S(=O)(Nc1ccccn1)c1ccc(N=Nc2ccc(O)c3ncccc23)cc1" ?
active

Given "COc1ccc2c(c1)nc(N)c1c3cccnc3cn21" , state the outcome it received in this test.
active

Hey, what did the test say about "CC1(C)Cc2c(sc3ncn4nc(-c5ccc(O)cc5)nc4c23)CO1" ?
inactive

How did this test come out for "CCCCCCNC(=O)Oc1ccc(/C(=C(/CC)Cc2ccccc2)c2ccc(OCCN3CCCCC3)cc2)cc1" ?
active

Short answer needed: outcome of this test for "CNc1ccc(CSc2ccc(C)cc2)cc1" ?
inactive

* * *

As shown below, each of these molecules has a reported growth value.
# Test system: MDA-MB-435 melanoma
# Procedure summary: NCI-60 one-dose screen, 48 h (100 = growth as untreated, 0 = no growth, -100 = all killed)
# Experimental setup: 10 µM
Compounds without any hit were thinned out: in the full panel of roughly 83,000, 20% have a hit.
Report the figure in % without appending any unit label.

The examples below pair each entry with its known result.
Item smiles: COc1ccc(OC)c(/C=C/c2nnc(Nc3ccc(Cl)cc3)o2)c1
Scale unit: %
growth: 69.8
--
Item smiles: COc1ccc(S(=O)(=O)NCCCNc2nccc(-c3c(-c4ccc(F)cc4)nc4sccn34)n2)cc1
Scale unit: %
growth: 27.9
--
Item smiles: ClCCOCCn1cnc2c(Cl)nc(Cl)nc21
Scale unit: %
growth: 80.7

Supply reported growth belonging to this molecule: "C=C(Cl)[C@@](Cl)(CBr)CC[C@@H](Br)C(C)(C)Cl"
-24.2

Query growth for "CN(C)CCOc1nc2ccccc2c2c1-c1ccc(Cl)cc1C2=O"
-41.6

Identify measured growth associated with "CNc1ccc(CSc2ccc(C)cc2)cc1"
85.2

* * *

The entries below come with measured growth values attached.
# System: NCI-H460 lung
# Procedure summary: NCI-60 one-dose screen, 48 h (100 = growth as untreated, 0 = no growth, -100 = all killed)
# Experimental setup: 10 µM
This is part of a sample that, as a whole, favours compounds with a hit. Of some 83,000 tested, about 20% had one in any assay.
Write down the numeric answer in % and omit the unit.

Item smiles: Cc1cc(Cl)nc(N(CCCNc2ccnc3cc(Cl)ccc23)Cc2cccs2)n1
growth (%): 7.09
--
Item smiles: CN(C)CCN=c1nc2c(c(N)n1-c1ccccc1)c(=S)n(-c1ccccc1)c(=S)n2-c1ccccc1
growth (%): 3.8

Using the record for "Cc1cc(N(CCCNc2ccnc3cc(Cl)ccc23)Cc2ccc3c(c2)OCO3)nc(N2CCOCC2)n1" , state its measured growth.
20.2

Give me measured growth, please, for this compound: "O=C(Nc1cccc(-n2cc(-c3ccncc3)c(-c3cc(O)cc(Cl)c3)n2)c1)Nc1ccc(Cl)c(C(F)(F)F)c1"
3.75
